- study.target: T1, human PD-1 (soluble antigen of the MSD assay, b-PD-1 monomer) (human, UniProt Q15116 25-170, limits assumed, biotinylated (b-PD-1), site not stated)
- T1 construct: The antigen format of the 'avid' measurement is not described
- T1 sequence (Q15116 25-170 limits assumed): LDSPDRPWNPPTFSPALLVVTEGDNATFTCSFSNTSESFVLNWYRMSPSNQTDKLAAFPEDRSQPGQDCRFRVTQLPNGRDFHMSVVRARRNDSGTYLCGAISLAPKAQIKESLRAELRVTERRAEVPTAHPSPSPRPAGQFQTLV
- assay.summary: MSD solution equilibrium titration, avid KD
- Experimental: Equilibrium affinity measurements are performed as previously described (Estep, P., et al., MAbs, 2013. 5(2): p. 270-8). […] Antigen captured on a plate is detected with 250 ng/mL sulfotag-labeled streptavidin in PBSF by incubation on the plate for 3 min. The plates are washed three times with wash buffer and are then read on the MSD Sector Imager 2400 instrument using 1× Read Buffer T with surfactant. […]
pKd: −log10 of the molar value.
Here the recorded pKd is given for each entry.
readout.kind: pKd

[
  {
    "binder": "Antibody A, IgG1 format expressed in yeast (antibody, V domains shown, Tested in IgG1 format, expressed in yeast) VH: QVQLVQSGAEVKKPGASVKVSCKASGYTFTSYYMHWVRQAPGQGLEWMGIINPSGGSTSYAQKFQGRVTMTRDTSTSTVYMELSSLRSEDTAVYYCAKEGVADGYGLVDVWGQGTMVTISS VL: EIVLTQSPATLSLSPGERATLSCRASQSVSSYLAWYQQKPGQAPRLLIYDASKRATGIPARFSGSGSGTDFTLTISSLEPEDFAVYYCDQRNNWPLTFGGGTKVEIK",
    "readout.kind": "pKd",
    "recorded.measurement": 10.31
  },
  {
    "binder": "Antibody D, IgG1 format expressed in yeast (antibody, V domains shown, Tested in IgG1 format, expressed in yeast) VH: QVQLVQSGAEVKKPGASVKVSCKASGYTFEKYYMHWVRQAPGQGLEWMGIINPDGGSTGYAQKFQGRVTMTRDTSTSTVYMELSSLRSEDTAVYYCAKEGVADGYGLVDVWGQGTMVTVSS VL: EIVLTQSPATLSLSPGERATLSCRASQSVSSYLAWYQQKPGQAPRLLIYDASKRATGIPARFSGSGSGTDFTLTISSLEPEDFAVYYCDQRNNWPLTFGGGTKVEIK",
    "readout.kind": "pKd",
    "recorded.measurement": 10.46
  },
  {
    "binder": "Antibody C, IgG1 format expressed in yeast (antibody, V domains shown, Tested in IgG1 format, expressed in yeast) VH: QVQLVQSGAEVKKPGASVKVSCKASGYTFTAQYMHWVRQAPGQGLEWMGIINPSGGETGYAQKFQGRVTMTRDTSTSTVYMELSSLRSEDTAVYYCAKEGVADGYGLVDVWGQGTMVTVSS VL: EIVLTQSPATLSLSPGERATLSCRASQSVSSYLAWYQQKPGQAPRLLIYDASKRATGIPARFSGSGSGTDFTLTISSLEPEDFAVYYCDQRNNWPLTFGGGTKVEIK",
    "readout.kind": "pKd",
    "recorded.measurement": 11.03
  },
  {
    "binder": "Antibody B, IgG1 format expressed in yeast (antibody, V domains shown, Tested in IgG1 format, expressed in yeast) VH: QVQLVQSGAEVKKPGASVKVSCKASGYTFEGYYMHWVRQAPGQGLEWMGIINPEGGETSYAQKFQGRVTMTRDTSISTAYMELSRLRSDDTAVYYCAKEGVADGYGLVDVWGQGTMVTVSS VL: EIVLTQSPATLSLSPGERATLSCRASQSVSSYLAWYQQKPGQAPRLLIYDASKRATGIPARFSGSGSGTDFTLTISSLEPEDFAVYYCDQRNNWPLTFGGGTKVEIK",
    "readout.kind": "pKd",
    "recorded.measurement": 10.85
  },
  {
    "binder": "Antibody F, IgG1 format expressed in yeast (antibody, V domains shown, Tested in IgG1 format, expressed in yeast) VH: QVQLVQSGAEVKKPGASVKVSCKASGYTFSAYYMHWVRQAPGQGLEWMGIINPDGGSTGYAQKFQGRVTMTRDTSTSTVYMELSSLRSEDTAVYYCAKEGVADGYGLVDVWGQGTMVTVSS VL: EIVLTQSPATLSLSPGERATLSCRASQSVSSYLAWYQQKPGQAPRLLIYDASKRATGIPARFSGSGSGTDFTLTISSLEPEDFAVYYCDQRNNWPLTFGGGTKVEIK",
    "readout.kind": "pKd",
    "recorded.measurement": 10.74
  },
  {
    "binder": "Antibody E, IgG1 format expressed in yeast (antibody, V domains shown, Tested in IgG1 format, expressed in yeast) VH: QVQLVQSGAEVKKPGASVKVSCKASGYTFTSNYMHWVRQAPGQGLEWMGIINPSEGSTGYAQKFQGRVTMTRDTSTSTVYMELSSLRSEDTAVYYCAKEGVADGYGLVDVWGQGTMVTVSS VL: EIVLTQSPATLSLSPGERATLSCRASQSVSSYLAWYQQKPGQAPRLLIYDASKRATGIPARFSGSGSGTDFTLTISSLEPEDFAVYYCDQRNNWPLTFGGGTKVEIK",
    "readout.kind": "pKd",
    "recorded.measurement": 10.66
  }
]
